Property: MBC Bacillus subtillis; scope: individual molecules
test system: Bacillus subtilis (ATCC 6633); format: cell-based; conditions: ATCC 6633, 24 h
Where a SMILES comes first, the peptide text is derived from it. The star is where a group is joined. Palmitoyl = CCCCCCCCCCCCCCCC(=O)*; Myristoyl = CCCCCCCCCCCCCC(=O)*; Lauroyl = CCCCCCCCCCCC(=O)*; Decanoyl = CCCCCCCCCC(=O)*
The reply should be a number in µg/mL, with the unit left off.

Known results for molecules:
CCCCCCCCCCCC(=O)N[C@@H](CCCCN)C(=O)NCC(N)=O [C12-KG-NH2] (Lauroyl-Lys-Gly-NH2) :: 256
CCCCCCCCCCCCCC(=O)N[C@@H](CCCCN)C(=O)N[C@@H](CCCCN)C(N)=O :: 4
CCCCCCCCCC(=O)N[C@@H](CCCCN)C(=O)NCC(=O)N[C@@H](CCCCN)C(N)=O [C10-KGK-NH2] (Decanoyl-Lys-Gly-Lys-NH2) :: 1000
CCCCCCCCCCCC(=O)N[C@@H](CCCCN)C(N)=O :: 256
CCCCCCCCCC(=O)N[C@@H](CCCCN)C(=O)N[C@@H](CCCCN)C(=O)N[C@@H](CCCCN)C(N)=O :: 256
CCCCCCCCCCCC(=O)N[C@@H](CCCCN)C(=O)N[C@@H](CCCCN)C(N)=O :: 128
CCCCCCCCCCCC(=O)N[C@@H](CCCCN)C(=O)N[C@@H](CCCCN)C(=O)N[C@@H](CCCCN)C(N)=O :: 128
CCCCCCCCCC(=O)N[C@@H](CCCCN)C(N)=O :: 1000
CCCCCCCCCCCC(=O)N[C@@H](CCCCN)C(=O)NCC(=O)N[C@@H](CCCCN)C(=O)NCC(N)=O [C12-KGKG-NH2] (Lauroyl-KGKG-NH2) :: 64
CCCCCCCCCCCCCC(=O)N[C@@H](CCCCN)C(=O)NCC(=O)N[C@@H](CCCCN)C(=O)NCC(N)=O [C14-KGKG-NH2] (Myristoyl-KGKG-NH2) :: 16

INPUT: // fetch MBC Bacillus subtillis for CCCCCCCC(=O)N[C@@H](CCCCN)C(=O)N[C@@H](CCCCN)C(=O)N[C@@H](CCCCN)C(N)=O ; system: Bacillus subtilis (ATCC 6633)
OUTPUT: 1000

INPUT: // fetch MBC Bacillus subtillis for CCCCCCCCCCCCCCCC(=O)N[C@@H](CCCCN)C(=O)NCC(=O)N[C@@H](CCCCN)C(=O)NCC(N)=O [C16-KGKG-NH2] (Palmitoyl-KGKG-NH2) ; system: Bacillus subtilis (ATCC 6633)
OUTPUT: 4

Each recorded value in this set is attributed to paper PMC5285354.
